The measurements presented in this section are drawn from ChEMBL document CHEMBL1144701.

# System: Human immunodeficiency virus 1
# procedure.summary: Antiviral activity against HIV1 3B in CEM cells assessed as inhibition of virus-induced cytopathogenicity after 4 days
# Type: functional, organism-based
# condition.info: Human immunodeficiency virus 1, 3B, CCRF-CEM, 96 h
For each entry below, report its EC50 value.

Qu. Query: EC50; subject: "Cc1cn([C@@H]2O[C@H](CO[Si](C)(C)C(C)(C)C)[C@@]3(NS(=O)(=O)C=C3N)[C@H]2O[Si](C)(C)C(C)(C)C)c(=O)[nH]c1=O"
Ans. 330 nM

Qu. Also "Cc1cn([C@@H]2O[C@H](CO[Si](C)(C)C(C)(C)C)[C@@]3(NS(=O)(=O)C(c4ccccc4)=C3N)[C@H]2O[Si](C)(C)C(C)(C)C)c(=O)[nH]c1=O" ?
Ans. ≥ 2000 nM

Qu. Then this compound: "Cc1cn([C@@H]2O[C@H](CO[Si](C)(C)C(C)(C)C)[C@]3(C(N)=C(c4ccccc4)S(=O)(=O)N3C)[C@H]2O[Si](C)(C)C(C)(C)C)c(=O)n(C)c1=O"
Ans. > 2000 nM

Qu. Next entry: "Cc1cn([C@@H]2O[C@H](CO[Si](C)(C)C(C)(C)C)[C@@]3(NS(=O)(=O)C(c4ccccc4)=C3N)[C@H]2O[Si](C)(C)C(C)(C)C)c(=O)n(C)c1=O"
Ans. > 50000 nM

Qu. Please do the same for "CCn1c(=O)c(C)cn([C@@H]2O[C@H](CO[Si](C)(C)C(C)(C)C)[C@@]3(NS(=O)(=O)C(c4ccccc4)=C3N)[C@H]2O[Si](C)(C)C(C)(C)C)c1=O" as well.
Ans. > 50000 nM

Qu. Can you handle "Cc1cn([C@@H]2O[C@H](CO[Si](C)(C)C(C)(C)C)[C@@]3(NS(=O)(=O)C(c4ccccc4)=C3N)[C@H]2O[Si](C)(C)C(C)(C)C)c(=O)n(C(=O)OC(C)(C)C)c1=O" next?
Ans. > 50000 nM

###

Give measured CC50 at 96 h for each item. Keep answers brief.
# procedure.summary: Cytotoxicity against mock-infected human CEM cells assessed as reduction of cell viability after 4 days
# Type: cell-based
# condition.info: mock-infected CEM (CCRF-CEM) cells
Number only, in µM; omit the unit.

Qu. I'd like to know its CC50 at 96 h. The compound in question is "Cc1cn([C@@H]2O[C@H](CO[Si](C)(C)C(C)(C)C)[C@@]3(NS(=O)(=O)C=C3N)[C@H]2O[Si](C)(C)C(C)(C)C)c(=O)[nH]c1=O"
Ans. 19.1

Qu. Proceed to "Cc1cn([C@@H]2O[C@H](CO[Si](C)(C)C(C)(C)C)[C@@]3(OS(=O)(=O)C=C3N)[C@H]2O[Si](C)(C)C(C)(C)C)c(=O)[nH]c1=O"
Ans. 16
